# experimental-system: Bile acid receptor (Homo sapiens)
# experimental-protocol: ATG_IR1_CIS: Attagene CIS-FACTORIAL HepG2 Assay for human Nuclear Receptor Subfamily 1 Group H Member 4 (NR1H4), IR1 submotif (AID 2282946)
# conditions-used: IR1 reporter transcription, actives raise or lower the signal
Active and inactive are the calls of the source. The calls were made as follows: active = hit-call score of the fitted dose curve at least 0.9, where 1 is the maximum; inactive = score below 0.9.
Possible outcomes: active, inactive

>  <compound-smiles>
C[C@]12CC[C@@H]3c4ccc(O)cc4CC[C@H]3[C@@H]1CCC2=O

>  <experimental-system>
Bile acid receptor (Homo sapiens)

>  <qualitative-label>
inactive

$$$$
>  <compound-smiles>
NCc1cccc(C2CCN(C(=O)c3ccc(C#Cc4ccccc4F)o3)CC2)c1

>  <experimental-system>
Bile acid receptor (Homo sapiens)

>  <qualitative-label>
inactive

$$$$
>  <compound-smiles>
Oc1ccccc1

>  <experimental-system>
Bile acid receptor (Homo sapiens)

>  <qualitative-label>
inactive

$$$$
>  <compound-smiles>
CCN(Cc1cccnc1)C(=O)c1cccc(Cl)c1[C@]1(C)C(=O)N(Cc2ccc(OC)cc2OC)c2ccc(Cl)cc21

>  <experimental-system>
Bile acid receptor (Homo sapiens)

>  <qualitative-label>
inactive

$$$$
>  <compound-smiles>
CC[C@H](NC(=O)c1cc(F)ccc1NS(=O)(=O)c1cccc2cccnc12)c1ccccc1

>  <experimental-system>
Bile acid receptor (Homo sapiens)

>  <qualitative-label>
inactive

$$$$
>  <compound-smiles>
Cc1oc2c(NC(=O)c3c(Cl)cccc3Cl)cccc2c1C(C)(C)O

>  <experimental-system>
Bile acid receptor (Homo sapiens)

>  <qualitative-label>
active

$$$$
>  <compound-smiles>
Clc1ccccc1C(c1ccccc1)(c1ccccc1)n1ccnc1

>  <experimental-system>
Bile acid receptor (Homo sapiens)

>  <qualitative-label>
inactive

$$$$
>  <compound-smiles>
O=c1ccc2ccccc2o1

>  <experimental-system>
Bile acid receptor (Homo sapiens)

>  <qualitative-label>
inactive

$$$$
>  <compound-smiles>
NC(=O)c1nc(-c2cccc(-c3cc(F)ccc3OCC(F)(F)C(F)(F)F)c2)n[nH]1

>  <experimental-system>
Bile acid receptor (Homo sapiens)

>  <qualitative-label>
active

$$$$
>  <compound-smiles>
CCOC(=O)O[C@H](C)OC(=O)c1ccc2c(c1)cc(C(=O)NC1CCN(C(C)C)CC1)n2Cc1cc(-c2ccc(Cl)s2)on1

>  <experimental-system>
Bile acid receptor (Homo sapiens)

>  <qualitative-label>
inactive

$$$$
>  <compound-smiles>
COc1ccc2cc(S(=O)(=O)N[C@H](CC(=O)N[C@H](Cc3ccc(CN4[C@H](C)CCC[C@@H]4C)cc3)C(=O)N(C)C(C)C)c3ccc4c(c3)OCO4)ccc2c1

>  <experimental-system>
Bile acid receptor (Homo sapiens)

>  <qualitative-label>
inactive

$$$$
>  <compound-smiles>
CCCCCCCCCCCO

>  <experimental-system>
Bile acid receptor (Homo sapiens)

>  <qualitative-label>
inactive

$$$$
>  <compound-smiles>
OCCO

>  <experimental-system>
Bile acid receptor (Homo sapiens)

>  <qualitative-label>
inactive

$$$$
>  <compound-smiles>
COc1cccc([C@H](O)C2CCN(CCc3ccc(F)cc3)CC2)c1OC

>  <experimental-system>
Bile acid receptor (Homo sapiens)

>  <qualitative-label>
inactive

$$$$
>  <compound-smiles>
CCCCCCCCOC(=O)c1cc(O)c(O)c(O)c1

>  <experimental-system>
Bile acid receptor (Homo sapiens)

>  <qualitative-label>
inactive

$$$$
>  <compound-smiles>
CN(C)C(=O)C1(N2CCCCC2)CCN(CC[C@@]2(c3ccc(Cl)c(Cl)c3)CN(C(=O)c3ccccc3)CCO2)CC1

>  <experimental-system>
Bile acid receptor (Homo sapiens)

>  <qualitative-label>
inactive

$$$$
>  <compound-smiles>
CCCCOC(=O)c1ccc(O)cc1

>  <experimental-system>
Bile acid receptor (Homo sapiens)

>  <qualitative-label>
inactive

$$$$
>  <compound-smiles>
CC1=CC(=O)/C(=C(/C)O)C(=O)O1

>  <experimental-system>
Bile acid receptor (Homo sapiens)

>  <qualitative-label>
inactive

$$$$
>  <compound-smiles>
CN(C[C@@H](CC[N+]12CCC(C3CCCCC3)(CC1)CC2)c1ccc(Cl)c(Cl)c1)C(=O)c1cc(C(F)(F)F)cc(C(F)(F)F)c1

>  <experimental-system>
Bile acid receptor (Homo sapiens)

>  <qualitative-label>
inactive

$$$$
>  <compound-smiles>
Cc1c2ccccc2c(C)c2c1ccc1ccccc12

>  <experimental-system>
Bile acid receptor (Homo sapiens)

>  <qualitative-label>
active

$$$$
>  <compound-smiles>
O=C(O)c1ccccc1-n1cc(C(=O)O)c(=O)c2cc(Nc3c(F)cc(F)cc3Cl)c(Cl)cc21

>  <experimental-system>
Bile acid receptor (Homo sapiens)

>  <qualitative-label>
inactive

$$$$
>  <compound-smiles>
Cc1ncc(CO)c(CO)c1O

>  <experimental-system>
Bile acid receptor (Homo sapiens)

>  <qualitative-label>
inactive

$$$$
